Observed IC50 for Human immunodeficiency virus type 1 reverse transcriptase (Human immunodeficiency virus 1), reported per entry below.
Respond numerically; units are µM and should not be typed.

Example cases with answers are listed next.
CCc1c(Cc2ccccc2)n(COCc2ccccc2)c(=O)n(O)c1=O
9.4
CC(C)c1c(Cc2ccccc2)n(COCc2ccccc2)c(=O)n(N)c1=O
1.5
CC(C)c1c(Cc2ccccc2)n(COCc2ccccc2)c(=O)[nH]c1=O
0.04

Hey, Human immunodeficiency virus type 1 reverse transcriptase (Human immunodeficiency virus 1) data for CC(C)c1c(Cc2ccccc2)n(COCc2ccc(F)cc2)c(=O)n(O)c1=O : IC50 came out at 0.17

Hey, Human immunodeficiency virus type 1 reverse transcriptase (Human immunodeficiency virus 1) data for CCOCn1c(Cc2ccccc2)c(C(C)C)c(=O)n(O)c1=O : IC50 came out at 13

Hey, Human immunodeficiency virus type 1 reverse transcriptase (Human immunodeficiency virus 1) data for CC(C)c1c(Cc2ccccc2)n(COCc2ccccc2)c(=O)n(O)c1=O : IC50 came out at 6.2
